- EXPERIMENTAL PROTOCOL: HUVEC growth inhibition – cell-based, human, primary screen (AID 575);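 note: 100% = median of untreated cell wells with 0.1% DMSO on each plate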
- CONDITION SET: HUVEC proliferation, CellTiter-Glo luminescence, 72 h; at 10 µM; stronger effect = lower value
Here the recorded viability is given for each entry.
Unit % implied. Number only.

- COMPOUND: "O=C(NCc1cccnc1)C1c2ccccc2C(=O)N1Cc1ccco1 (configuration not stated)"
  viability (%): 92
- COMPOUND: "COc1ccc(N2CCN(C(=O)COc3ccc4ccccc4c3)CC2)cc1"
  viability (%): 84.8
- COMPOUND: "CCCCN(c1ccccc1)S(=O)(=O)c1ccc2c(c1)CCN2C(=O)CCC(=O)O"
  viability (%): 93.8
- COMPOUND: "CCOc1ccccc1NC(=O)C1CCCN(C(=O)NCc2ccccc2)C1 (configuration not stated)"
  viability (%): 96.8
- COMPOUND: "COc1ccccc1C(=O)Nc1ccc(S(=O)(=O)N2CCCC2)cc1"
  viability (%): 81.9

Prompt: If you can, please state the reported viability value of `Fc1cccc2sc(N3CCOCC3)nc12` .
Completion: 83.9

Prompt: Another compound: `Cc1nc(-c2cccc(N)c2)cs1`
Completion: 84.3

Prompt: Also, `O=c1oc2ccccc2c2c1ncn2-c1ccccc1` please.
Completion: 90.4

Prompt: Record: `Cc1nc(C)c(C(=O)Nc2ccc(C)c(F)c2)o1`
Completion: 117

Prompt: Item: `O=C1c2ccccc2C(=O)N1C/C=C/c1ccccc1`
Completion: 78.2

Prompt: Could you do the same for CCOC(=O)C(NC(=O)C1CCCN1C(=O)OCc1ccccc1)C(=O)OCC (configuration not stated) , please?
Completion: 98.2

Prompt: And for `Cc1cccc(-c2nnc(SCC#N)n2-c2cccc(Cl)c2)c1` ?
Completion: 104

* * *

- EXPERIMENTAL PROTOCOL: reversal of MRP1-mediated doxorubicin resistance, pilot screen, H69AR cells, doxorubicin co-treatment (AID 601)
- CONDITION SET: H69AR cells + 2 uM doxorubicin, CellTiter-Glo, 72 h; measured here: viability with 2 uM doxorubicin; at 10 µM; stronger effect = lower value
Threshold-based label: viability under 90% gives satisfied, viability not under 90% gives not satisfied.

Record excerpt, results attached:
- COMPOUND: "Cc1nc(NC2=NCN(CC3CCCO3)CN2)nc2ccccc12 (centres undefined)"
  GROUP LABEL: "not satisfied"
- COMPOUND: "C=CCNC(=O)c1cc(-c2ccccc2O)on1"
  GROUP LABEL: "satisfied"
- COMPOUND: "CCn1c(=O)cc(SCC(=O)NCC2CCCO2)c2ccccc21 (centres undefined)"
  GROUP LABEL: "satisfied"
- COMPOUND: "Cc1ccc2c(c1)NC(=O)C(CC(=O)NCCN(CC(C)C)CC(C)C)O2 (centres undefined)"
  GROUP LABEL: "satisfied"
- COMPOUND: "O=C(Nc1ccc(Cl)cc1C(=O)Nc1ccncc1)c1ccco1"
  GROUP LABEL: "satisfied"

Prompt: Consider Cc1cccc(N2C(=O)CC(N3CCN(Cc4ccc(Cl)cc4)CC3)C2=O)c1 (centres undefined) . Does its viability lie strictly below 90%?
Completion: satisfied

Prompt: Would you kindly repeat that for `CCOc1nc(SCCOc2ccccc2)nc(N(C)C)n1` ?
Completion: not satisfied

Prompt: Also CCC(c1nnnn1Cc1ccco1)N(CCc1ccccc1)Cc1cc2cccc(C)c2[nH]c1=O (centres undefined) , if possible.
Completion: satisfied

Prompt: Subsequent entry: `Cc1ccc(-n2ncc3c(Nc4c(C)n(C)n(-c5ccccc5)c4=O)ncnc32)c(C)c1`
Completion: satisfied

Prompt: Then what about the compound `COc1ccc(N(C(=O)c2ccco2)S(=O)(=O)c2cc(OC)ccc2OC)cc1` ?
Completion: not satisfied

* * *

The following molecules are listed with their measured viability values.
- EXPERIMENTAL PROTOCOL: HUVEC growth inhibition – cell-based, human, primary screen (AID 575);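 note: 100% = median of untreated cell wells with 0.1% DMSO on each plate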
- CONDITION SET: HUVEC proliferation, CellTiter-Glo luminescence, 72 h; at 10 µM; stronger effect = lower value
Write the answer as a number in %, unit excluded.

// below: answered molecules
- MOLECULE: "CC(=O)c1ccc(OCC(O)CN2CC(C)OC(C)C2)cc1 (stereo unspecified)"
  RECORDED MEASUREMENT: 99.7
- MOLECULE: "CN(CCC#N)C(=O)COC(=O)c1ccc(Cl)c(S(N)(=O)=O)c1"
  RECORDED MEASUREMENT: 106

Prompt: State the recorded viability for this entry: CN1CCN(CCCNC(=O)C2CC(=O)N(C3CCCCC3)C2)CC1 (stereo unspecified)
Completion: 88.8

Prompt: For `COc1ccc(NC(C)=O)cc1NC(=O)CN1CCN(c2ccccn2)CC1` then?
Completion: 96

Prompt: Entry to check: CCc1ccc(N2CC(C(=O)OCC(=O)Nc3cc(C)on3)CC2=O)cc1 (stereo unspecified)
Completion: 107

Prompt: Another molecule: `CCCc1c(O)nc(SCC(=O)NCCc2ccc(OC)c(OC)c2)[nH]c1=O`
Completion: 84.6

Prompt: Another: COc1ccc(Cn2nnnc2C(c2cccs2)N2CCOCC2)cc1 (stereo unspecified)
Completion: 90.9

* * *

- STUDY SYSTEM: Receptor tyrosine-protein kinase erbB-2 (Homo sapiens) (UniProt P04626)
- Sequence (P04626 whole entry, looked up): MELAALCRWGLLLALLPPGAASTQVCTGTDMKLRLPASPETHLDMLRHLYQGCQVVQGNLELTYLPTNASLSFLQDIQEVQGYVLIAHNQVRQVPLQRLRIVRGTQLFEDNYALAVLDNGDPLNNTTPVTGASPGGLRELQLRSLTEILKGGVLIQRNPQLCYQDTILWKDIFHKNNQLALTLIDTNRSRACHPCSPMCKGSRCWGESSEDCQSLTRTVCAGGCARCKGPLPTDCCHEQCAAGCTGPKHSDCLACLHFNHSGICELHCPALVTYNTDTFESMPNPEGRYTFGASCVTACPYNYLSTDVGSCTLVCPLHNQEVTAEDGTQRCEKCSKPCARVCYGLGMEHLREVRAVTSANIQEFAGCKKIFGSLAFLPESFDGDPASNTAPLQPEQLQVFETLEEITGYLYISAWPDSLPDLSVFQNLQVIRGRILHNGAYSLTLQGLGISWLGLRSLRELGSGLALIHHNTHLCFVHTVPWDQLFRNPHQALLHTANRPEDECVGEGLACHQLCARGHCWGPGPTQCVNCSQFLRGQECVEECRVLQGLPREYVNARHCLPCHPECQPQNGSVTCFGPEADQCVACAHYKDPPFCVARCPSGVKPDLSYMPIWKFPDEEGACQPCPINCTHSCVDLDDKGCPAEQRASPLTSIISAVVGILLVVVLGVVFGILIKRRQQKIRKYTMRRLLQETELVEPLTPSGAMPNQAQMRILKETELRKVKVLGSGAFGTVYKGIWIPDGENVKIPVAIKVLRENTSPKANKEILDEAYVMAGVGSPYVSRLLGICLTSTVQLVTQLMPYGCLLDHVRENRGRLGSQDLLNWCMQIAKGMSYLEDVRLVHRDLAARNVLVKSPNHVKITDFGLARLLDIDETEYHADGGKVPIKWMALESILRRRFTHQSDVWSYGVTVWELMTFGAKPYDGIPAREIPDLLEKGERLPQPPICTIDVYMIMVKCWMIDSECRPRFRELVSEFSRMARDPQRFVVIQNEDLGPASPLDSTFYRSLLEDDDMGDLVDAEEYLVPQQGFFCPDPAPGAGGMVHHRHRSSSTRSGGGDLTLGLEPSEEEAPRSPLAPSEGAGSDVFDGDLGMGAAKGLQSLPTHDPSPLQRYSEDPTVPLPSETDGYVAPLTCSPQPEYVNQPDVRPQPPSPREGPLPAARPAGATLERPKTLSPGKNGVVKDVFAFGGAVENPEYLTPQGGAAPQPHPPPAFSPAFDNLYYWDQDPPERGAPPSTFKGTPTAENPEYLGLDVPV
- EXPERIMENTAL PROTOCOL: reducers of endogenous Her2 protein level, primary screen, SKBR3 breast tumor cells, AlphaScreen, ATP viability (AID 461);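 note: lower value means less Her2 protein in the cells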
- CONDITION SET: 18-24 h, at 10 µM, stronger effect = lower value
ASSAY READOUT: Her2 level (%)
Just the number please, in %, no unit attached.

- COMPOUND: "COc1ccc(CC(=O)OCc2nnc(C3COc4ccccc4O3)o2)cc1OC (stereo unspecified)"
  Her2 level / %: 104
- COMPOUND: "CCN(CC)S(=O)(=O)N1CCC(C(=O)NCC2COc3ccccc3O2)CC1 (stereo unspecified)"
  Her2 level / %: 114
- COMPOUND: "COc1cc(C(=O)Nc2cccc(-c3nc4cc(C)ccc4o3)c2)cc(OC)c1OC"
  Her2 level / %: 80
- COMPOUND: "CS(=O)(=O)N1CCN(CC2CC3C=CC2C3)CC1 (stereo unspecified)"
  Her2 level / %: 98
- COMPOUND: "COc1ccc(C(NC(=O)C(C)(C)C)NC(=O)C(C)(C)C)cc1"
  Her2 level / %: 99.5

Prompt: What value of Her2 level has been recorded for this entry: `CCCCn1nnc(NC(=O)Cc2ccc(Cl)cc2)n1`
Completion: 134

* * *

- EXPERIMENTAL PROTOCOL: reversal of MRP1-mediated doxorubicin resistance, pilot screen, H69AR cells, doxorubicin co-treatment (AID 601)
- CONDITION SET: H69AR cells, CellTiter-Glo, 72 h; compound alone cytotoxicity; at 10 µM
ASSAY READOUT: viability (%)
Number only, in %; omit the unit.

- COMPOUND: "COc1ccc(-c2cc(C(F)(F)F)n3ncc(C(=O)NCC4CCCO4)c3n2)cc1 (stereo not drawn)"
  viability / %: 41.7
- COMPOUND: "Cc1ccc(C(c2nnnn2CCC(C)C)N2CCN(C)CC2)cc1 (stereo not drawn)"
  viability / %: 98.8
- COMPOUND: "COc1ccc(C2=NOC(C(=O)NCc3ccc(F)cc3)C2)cc1OC (stereo not drawn)"
  viability / %: 29.3
- COMPOUND: "CC1=C/C(=C/N(C)c2ccccc2)C(=O)S1"
  viability / %: 89.3
- COMPOUND: "CCc1nccn1S(=O)(=O)c1ccc(C)c(C)c1"
  viability / %: 99.6
- COMPOUND: "Cc1nc(SCC(=O)N2CCC(C(N)=O)CC2)n[nH]1"
  viability / %: 95.5

// moving on: another record for viability
Prompt: Which measured viability value corresponds to `O=C(Nc1ccccc1N1CCN(C(=O)c2ccc(Cl)cc2)CC1)c1cc2ccccc2o1` ?
Completion: 85.5

* * *

Each entry below carries its recorded viability.
- EXPERIMENTAL PROTOCOL: reversal of MRP1-mediated doxorubicin resistance, pilot screen, H69AR cells, doxorubicin co-treatment (AID 601)
- CONDITION SET: H69AR cells + 2 uM doxorubicin, CellTiter-Glo, 72 h; measured here: viability with 2 uM doxorubicin; at 10 µM; stronger effect = lower value
Return type: number; implicit unit %.

Worked set:
- COMPOUND: "Cc1cc(C)c2cc3c(ccn3C3OC[C@H](O)[C@H](O)[C@H]3O)cc2n1 (stereo partly specified)"
  MEASUREMENT UNITS: "%"
  viability: 90.3
- COMPOUND: "Cc1cccc(NC2SC(=O)N(c3ccccc3)C2=O)c1 (stereo unspecified)"
  MEASUREMENT UNITS: "%"
  viability: 97.9
- COMPOUND: "Cc1cc(C)n2nc3nc(N4CCCCC4)nc(-c4ccco4)c3c2n1"
  MEASUREMENT UNITS: "%"
  viability: 82.8
- COMPOUND: "O=C(O)COc1ccc2occ(C(=O)c3ccccc3)c2c1"
  MEASUREMENT UNITS: "%"
  viability: 92.9

Prompt: GET /values?readout=viability&item= `Cc1ccc(NC(=O)Cn2cccc2)cc1Cl`
Completion: 78.5

Prompt: Same read-out for `CCOc1ccc(OCc2ccc(C(=O)Nc3cccc(C)n3)o2)cc1` ?
Completion: 87.3

Prompt: Moving on to the next compound: `N#Cc1nc(COc2ccccc2)oc1NCCCn1ccnc1`
Completion: 107

Prompt: Cool, now `CC(C)CCNC(=O)NC(=O)CN1C(=O)NC2(CCCCC2)C1=O`
Completion: 101

Prompt: And the next one, `CN(C)c1nc(Nc2ccc(Cl)cc2)nc(OCC#N)n1` ?
Completion: 96.3

Prompt: Repeat for the following compound: `Cc1cc(NC(=O)c2ccc3c(c2)C(=O)N(Cc2cccnc2)C3=O)no1`
Completion: 102

Prompt: Try this compound too: `COc1cc(CNc2ccc(N3CCOCC3)c(C(=O)O)c2)ccc1OCC(N)=O`
Completion: 99.1

Source: PubChem BioAssay
